All figures here come from paper PMC8809517.

# assayed-system: T1, GFP-9S library array, motif 4 ND N98C;D124H (synthetic construct, N98C;D124H)
# T1 chain: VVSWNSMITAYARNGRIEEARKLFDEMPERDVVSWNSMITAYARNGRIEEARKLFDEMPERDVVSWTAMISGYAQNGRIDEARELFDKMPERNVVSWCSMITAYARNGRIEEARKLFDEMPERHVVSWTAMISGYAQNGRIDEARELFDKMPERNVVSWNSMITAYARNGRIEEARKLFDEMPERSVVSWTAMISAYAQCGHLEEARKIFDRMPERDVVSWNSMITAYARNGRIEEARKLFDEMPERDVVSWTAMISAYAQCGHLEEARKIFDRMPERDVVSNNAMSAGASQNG
# method-notes: high-throughput RNA pulldown from lysate on Ni-NTA beads; HRP: 50 mM Tris pH 8, 150 mM NaCl, 1 mM beta-mercaptoethanol, 50 ug/ml BSA, 3 ug/ml yeast RNA, 0.5% heparin; ITC and FP: Tris pH 8, 200 mM KCl, 5% glycerol; MST: 50 mM Tris pH 8, 200 mM NaCl, 1 mM DTT, BSA, heparin, 0.05% Tween 20
# measurement-parameters: tags: N-terminal His-eGFP; label: 5' Cy5
assay-metric: Kd

I have this binder here, AUUACACGUGA (ssRNA) [Cy5-rpoA] , and I need its recorded Kd. 124 nM

Would you kindly look at the next entry?
Report Kd for AUUAGACGUGA (ssRNA) [Cy5-rpoA-G] please. 57.7 nM
